Measured values drawn from patent US20120225060A1 for this set.

Measured Target: T1, recombinant human IL-6R-extracellular domain (ECD) (human, UniProt P08887 20-365)
T1 construct: extracellular domain; also called IL-6R-ECD
T1 sequence (looked up): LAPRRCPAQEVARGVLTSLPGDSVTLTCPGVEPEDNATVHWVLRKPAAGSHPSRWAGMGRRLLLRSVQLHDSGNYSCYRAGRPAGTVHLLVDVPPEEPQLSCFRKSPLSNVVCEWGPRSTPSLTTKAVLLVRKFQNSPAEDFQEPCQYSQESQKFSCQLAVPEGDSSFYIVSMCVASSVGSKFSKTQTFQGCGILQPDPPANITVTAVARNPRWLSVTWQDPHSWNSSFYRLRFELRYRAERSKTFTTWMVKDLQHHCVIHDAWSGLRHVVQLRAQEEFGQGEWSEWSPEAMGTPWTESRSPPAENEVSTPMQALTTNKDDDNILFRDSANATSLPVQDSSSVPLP
Experiment Notes: SPR
Readout Name: Kd (nM)
Output spec: scalar in nM, unitless text.

Example entries and their recorded answers appear below.
Return Kd (reported value) for this binder: humanized clone #36 anti-IL-6R antibody (antibody, human IgG1, kappa, V domains shown, Humanized VH cloned into human IgG1 CH vector, humanized VK into human CK vector; also called Humanized 36; humanized 36) VH: EVQLVESGGGLVQPGGSLRLSCAVSGFSLSSYYMSWVRQAPGKGLEWIGITTTSTNTFYASWAKGRFTISKDSSKNTVYLQMNSPRAEDTAVYFCARYGGNSAYYAFSLWGQGTLVTVSS VL: DIQMTQSPSSLSASVGDRVTISCQSSQSVYNNNYLAWFQQKPGKPPKLLIYGASNLASGVPSRFSGSGSGTQFTLTISSLQPEDVATYYCQGYYNGVIFVFGGGTKVEIKR
0.526

Return Kd (reported value) for this binder: clone 51 rabbit anti-IL-6R antibody (antibody, V domains shown) VH: QSVEESGGRLVTPGTPLTLTCTASGFDISSYSLQWVRQSPGKGLEYIGFIRPDGSAHYATWAKGRFTISKTSSTTVDLKMTSLTTEDTATYFCARDDISSDYFPNLWGPGTLVTVSS VL: QVLTQTPSPVSAAVGGTVTISCQASESVYNKNNLAWYQQKPGQPPKLLIYDASDLASGVSSRFKGSGSGTQFTLTISDLECADAATYYCAGGGSGNVYDFGGGTEVVVK
1.17

Return Kd (reported value) for this binder: clone 36 rabbit anti-IL-6R antibody (antibody, V domains shown) VH: QSVEESGGRLVTPGTPLTLTCTVSGFSLSSYYMSWVRQAPGKGLEWIGITTTSTNTFYASWAKGRFTISKTSATVDLKITSPTIEDTATYFCARYGGNSAYYAFSLWGQGTLVTVSS VL: QVLTQTASSVSAAVGGTVTISCQSSQSVYNNNYLAWFQQKPGQPPKLLIYGASNLASGVPSRFKGSGSGTQFTLTISDLECDNAATYYCQGYYNGVIFVFGGGTEVVVK
0.635

---
Return Kd (reported value) for this binder: humanized clone #51 anti-IL-6R antibody (antibody, human IgG1, kappa, V domains shown, Humanized VH cloned into human IgG1 CH vector, humanized VK into human CK vector; also called Humanized 51; humanized 51) VH: EVQLVESGGGLVQPGGSLRLSCAASGFDISSYSLQWVRQSPGKGLEYIGFIRPDGSAHYATWAKGRFTISKDSSKNTVYLQMNSLRAEDTAVYFCARDDISSDYFPNLWGPGTLVTVSS VL: DIQMTQSPSTLSASVGDRVTISCQASESVYNKNNLAWYQQKPGKPPKLLIYDASDLASGVPSRFSGSGSGTQFTLTISSLQPDDFATYYCAGGGSGNVYDFGGGTKVEIKR
1.29
